- studySystem: Follistatin-related protein 3 (Homo sapiens)
- measurementProtocol: FSTL3 binders on small-molecule microarrays, primary screen, biochemical, small-molecule microarray, 635 nm fluorescence (AID 1105);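 further: score merges emission near 667 nm and signal to noise per printed spot across three slides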
- protocolConditions: FSTL3 binding, higher = more signal
Exercise: for every item that follows, state its recorded composite z-score.
A bare number is all that is needed in reply.

Short answer for COC(=O)[C@H](Cc1ccccc1)N1CC2=C[C@@H](C3CC3)n3c(=O)n(C)c(=O)n3[C@H]2[C@@H]1[C@@H](O)Cc1ccccc1 : composite z-score was 0.868

Short answer for CC(C)OC(=O)C=C1C[C@@H](c2ccccn2)O[C@@H](c2ccccn2)O1 : composite z-score was 1.1

Short answer for COC(=O)C(CC#Cc1ccc2c(c1)[C@]1(C(=O)N2)[C@H](c2ccc(OCCO)cc2)N2[C@H](c3ccccc3)[C@H](c3ccccc3)OC(=O)[C@H]2[C@@H]1C(=O)Nc1nc2ccccc2s1)C(=O)OC : composite z-score was 1.09

Short answer for CC(CO)N1C(=O)[C@@H]2C3C(=O)OCCC/C=C\[C@H]3OC23C=CCN(C(C)(C)C)C(=O)[C@@H]13 (stereo not given in full) : composite z-score was 0.0856

Short answer for C=C(/C(=C/C[C@H](OC(C)=O)c1ccccc1OCCO)c1cnc2ccccc2c1)C(C)C : composite z-score was 1.04

Short answer for OCCCC1=CC(c2cccs2)N(Cc2cc3c(cc2Br)OCO3)CC1 (stereo not given) : composite z-score was -0.0688

Short answer for COCCOC(=O)N1C(=O)[C@@]2(c3ccccc31)[C@H](c1ccc(O)cc1)N1[C@H](c3ccccc3)[C@H](c3ccccc3)OC(=O)[C@H]1[C@@H]2C(=O)Nc1nc2ccccc2s1 : composite z-score was 0.542

Short answer for C=CCNC(=O)[C@@H]1[C@H]2C(=O)O[C@H](c3ccccc3)[C@H](c3ccccc3)N2[C@H](c2ccc(OCCO)cc2)[C@@]12C(=O)Nc1ccc(C#CCC(C(=O)OC)C(=O)OC)cc12 : composite z-score was 0.753

Short answer for O=C(c1ccccc1)N1Cc2ccccc2C[C@@]2(COC(c3ccc(OCCCO)cc3)=N2)C1=O : composite z-score was 0.796

Short answer for COCCOC(=O)N1C(=O)[C@@]2(c3cc(C#CCCO)ccc31)[C@H](C(N)=O)[C@H]1C(=O)O[C@H](c3ccccc3)[C@H](c3ccccc3)N1[C@@H]2c1ccc(O)cc1 : composite z-score was -0.131

* * *

- studySystem: Alpha-bungarotoxin (Bungarus multicinctus) (UniProt P60615)
- Sequence (P60615 whole entry, looked up): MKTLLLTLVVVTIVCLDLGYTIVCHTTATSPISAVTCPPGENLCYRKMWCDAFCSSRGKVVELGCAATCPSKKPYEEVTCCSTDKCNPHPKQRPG
- measurementProtocol: alpha-bungarotoxin binders on microarray, profiling panel, artefact control for SMM control protein annotation, biochemical, small-molecule microarray, Alexa647 label, 635/667 nm fluorescence (AID 1117)
- protocolConditions: alpha-BTX-A647 binding fluorescence, higher = more signal
measureName: composite z-score
A bare number is all that is needed in reply.

Short answer for C[N+](C)(C)CCCCCCNC(=O)[C@@H]1C[C@@H]2C(=O)N[C@@H](Cc3ccccc3)C(=O)N2[C@@H]1c1cccc(OCCO)c1 : composite z-score was 1.24

Short answer for C=C(CCCC)/C(=C/C[C@H](OC(=O)c1ccncc1)c1ccccc1OCCO)c1cnc2ccccc2c1 : composite z-score was 0.527

Short answer for COCCOC(=O)N1C(=O)[C@@]2(c3ccccc31)[C@H](C(=O)N1CCc3cc(OC)c(OC)cc3C1)[C@H]1C(=O)O[C@H](c3ccccc3)[C@H](c3ccccc3)N1[C@@H]2c1ccc(OCCO)cc1 : composite z-score was 0.663

Short answer for C=CCOC(=O)[C@H]1[C@@H]2C(=O)O[C@@H](c3ccccc3)[C@@H](c3ccccc3)N2[C@@H](c2ccc(OCCOC(=O)[C@H]3C[C@H]4C(=O)N[C@@H](CCCCNC(C)=O)C(=O)N4[C@H]3c3cccc(OCCO)c3)cc2)[C@]12C(=O)Nc1ccccc12 : composite z-score was 0.977

Short answer for COCCOC(=O)N1C(=O)[C@@]2(c3cc(C#CCC(C(=O)OC)C(=O)OC)ccc31)[C@H](c1ccccc1OCCO)N1[C@H](c3ccccc3)[C@H](c3ccccc3)OC(=O)[C@H]1[C@@H]2C(=O)NC[C@H](O)c1ccccc1 : composite z-score was 0.926

Short answer for C=CCNC(=O)[C@@H]1[C@H]2C(=O)O[C@H](c3ccccc3)[C@H](c3ccccc3)N2[C@H](c2ccc(O)cc2)[C@@]12C(=O)Nc1ccc(C#CCNC(N)=O)cc12 : composite z-score was -0.234

Short answer for COc1ccc(C#Cc2ccc3c(c2)[C@]2(C(=O)N3)[C@H](C(=O)NC[C@H](O)c3ccccc3)[C@H]3C(=O)O[C@H](c4ccccc4)[C@H](c4ccccc4)N3[C@@H]2c2ccc(O)cc2)cc1 : composite z-score was 1.72

Short answer for CCCC[C@@H]1C[C@H]1[C@@H](NC(=O)c1cccs1)c1ccc(-c2ccccc2)cc1 : composite z-score was -0.474

Short answer for CC(=O)n1cc(C(O)C2C=CC3C(=O)N(c4ccccc4)C(=O)C3N2Nc2ccc([N+](=O)[O-])cc2)c2ccccc21 (stereo not given) : composite z-score was 1.7

Short answer for C=CCN1C(=O)[C@]2(O[C@H](CCn3cc([C@H](O)c4ccccc4)nn3)[C@@H]([Si](C)(C)c3ccc(OC)cc3)[C@@H]2C)c2ccccc21 : composite z-score was -1.56

* * *

- Test system: XIP peptide (Xip251-270) binding
- measurementProtocol: small-molecule binders of XIP peptide, primary screen, biochemical, small-molecule microarray, fluorescence 635/667 nm, 0.1 µg/mL protein (AID 1182)
- protocolConditions: fluorescent protein binding, 635 nm, higher = more signal, called active from +8 up or from −8 down
measureName: composite z-score
A bare number is all that is needed in reply.

Observed composite z-score, XIP peptide (Xip251-270) binding, O=C1c2ccccc2[C@](Cc2ccccc2I)(C(=O)NCC(F)(F)F)[C@H](c2ccc(CO)cc2)N1Cc1ccccc1Cl : 0.149

Observed composite z-score, XIP peptide (Xip251-270) binding, O=C1c2ccccc2[C@](Cc2ccccc2I)(C(=O)NCCN2CCOCC2)[C@H](c2ccc(CO)cc2)N1Cc1ccccc1Cl : 1.08

Observed composite z-score, XIP peptide (Xip251-270) binding, COC(=O)C(CC#Cc1ccc2c(c1)[C@]1(C(=O)N2)[C@H](c2ccc(OCCO)cc2)N2[C@H](c3ccccc3)[C@H](c3ccccc3)OC(=O)[C@H]2[C@@H]1C(=O)N1CCc2cc(OC)c(OC)cc2C1)C(=O)OC : 0.0734

Observed composite z-score, XIP peptide (Xip251-270) binding, C=C(CCCC)/C(=C/C[C@H](OC(=O)c1ccncc1)c1ccccc1OCCO)c1cnc2ccccc2c1 : 0.8

Observed composite z-score, XIP peptide (Xip251-270) binding, COC(=O)[C@H](Cc1ccccc1)N[C@@H](/C=C/C1CC1)[C@H](O)Cc1ccccc1 : -0.207

Observed composite z-score, XIP peptide (Xip251-270) binding, O=C(N1CCCCC1)[C@]1(Cc2ccccc2)N=C(c2ccc(OCCCO)cc2)O[C@@H]1c1ccccc1 : 0.0557

* * *

- studySystem: E3 ubiquitin-protein ligase XIAP (Homo sapiens) (UniProt P98170)
- Sequence (P98170 whole entry, looked up): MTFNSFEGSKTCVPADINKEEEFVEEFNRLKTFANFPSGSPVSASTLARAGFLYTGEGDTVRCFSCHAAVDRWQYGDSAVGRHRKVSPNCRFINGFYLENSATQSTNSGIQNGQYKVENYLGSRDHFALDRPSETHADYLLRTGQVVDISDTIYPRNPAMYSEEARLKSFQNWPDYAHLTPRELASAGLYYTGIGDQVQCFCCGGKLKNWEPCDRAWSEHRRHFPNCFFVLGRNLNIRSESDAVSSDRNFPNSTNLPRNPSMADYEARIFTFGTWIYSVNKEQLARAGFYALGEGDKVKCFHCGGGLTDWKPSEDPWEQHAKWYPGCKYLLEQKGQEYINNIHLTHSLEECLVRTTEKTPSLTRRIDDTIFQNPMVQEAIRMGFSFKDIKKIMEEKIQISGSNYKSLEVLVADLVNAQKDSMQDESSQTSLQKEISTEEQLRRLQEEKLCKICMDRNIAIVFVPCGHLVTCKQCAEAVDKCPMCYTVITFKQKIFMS
- measurementProtocol: XIAP binders, primary screen, biophysical, small-molecule microarray, fluorescence 635 nm (AID 1181);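 further: score merges 667 nm emission and signal to noise over triplicate slides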
- protocolConditions: small-molecule microarray binding, higher = more signal
Each entry gets false (0) if its composite z-score stays under 0.04, and true (1) if its composite z-score is 0.04 or above.

Answer whether composite z-score of CC(C)c1ccc(NN2C(C(O)c3ccc(B(O)O)cc3)C=CC3C(=O)N(c4ccccc4)C(=O)C32)cc1 (stereo not given) is greater than or equal to 0.04.
false (0)

Answer whether composite z-score of C=CCOC(=O)[C@H]1[C@@H]2C(=O)O[C@@H](c3ccccc3)[C@@H](c3ccccc3)N2[C@@H](c2ccc(OCCOC(=O)[C@H]3C[C@H]4C(=O)N[C@@H](CCCCNC(C)=O)C(=O)N4[C@H]3c3cccc(OCCO)c3)cc2)[C@]12C(=O)Nc1ccccc12 is greater than or equal to 0.04.
false (0)

Answer whether composite z-score of COc1cc2c(cc1OC)CN(C(=O)[C@@H]1[C@H]3C(=O)O[C@H](c4ccccc4)[C@H](c4ccccc4)N3[C@H](c3ccc(O)cc3)[C@@]13C(=O)Nc1ccccc13)CC2 is greater than or equal to 0.04.
false (0)

Answer whether composite z-score of O=C1C[C@@](C(=O)NC2CC2)(c2ccc([N+](=O)[O-])cc2)[C@@H](c2ccc(CO)cc2I)N1C1CCCCC1 is greater than or equal to 0.04.
true (1)

Answer whether composite z-score of COC(=O)[C@]1(CCC(=O)OC(C)(C)C)N=C(c2ccc(OCCCO)cc2)O[C@@H]1c1ccccc1CN=[N+]=[N-] is greater than or equal to 0.04.
false (0)

Answer whether composite z-score of COc1ccc(CCNC(=O)[C@@]2(Sc3ccc(C)cc3)CC(=O)N(C(C)C)[C@@H]2c2ccc(CO)cc2I)cc1 is greater than or equal to 0.04.
false (0)

Answer whether composite z-score of CO[C@H]1O[C@H](CO)[C@@H](OC(=O)Nc2ccc(C(F)(F)F)cc2)[C@H](OC(=O)Nc2ccc3c(c2)OCO3)[C@@H]1OC(=O)Nc1ccc2c(c1)OCO2 is greater than or equal to 0.04.
true (1)

Answer whether composite z-score of N#Cc1ccc(NN2C(C(O)C(c3ccccc3)c3ccccc3)C=CC3C(=O)N(c4ccccc4)C(=O)C32)cc1 (stereo not given) is greater than or equal to 0.04.
true (1)

Answer whether composite z-score of O=C1c2ccccc2[C@](Cc2ccccc2I)(C(=O)NCCN2CCOCC2)[C@H](c2ccc(CO)cc2)N1Cc1ccccc1Cl is greater than or equal to 0.04.
false (0)

Value source: PubChem BioAssay
